Assay: Ratio of free drug uptake in pancreas to plasma of Wistar rat at 100 mg/kg, po administered for 28 days measured 4 hrs post last dosing
Type: ADME, organism-based
Design: dose 100 mg/kg, route oral
VALUE TYPE: Kp uu at 4 h

**Query** Quick one: give measured Kp uu at 4 h for O=C(O)c1ccc(NC(=O)[C@H](CC2CCCC2)n2cnc(C(F)(F)F)c2)nc1
**Result** 0.14

###

Experiment: Volume of distribution at steady state in dog at 1 mg/kg, iv
Format: ADME, organism-based, Canis lupus familiaris
Design: dose 1 mg/kg, route intravenous
Details: in vivo, read-out: Vdss
VALUE TYPE: Vd (L/kg)
Hi! Could you send only the number? It should be in L/kg, unit omitted.

**Query** Quick one: give measured Vd for O=C(O)c1ccc(NC(=O)[C@H](CC2CCCC2)n2cnc(C(F)(F)F)c2)nc1
**Result** 1.6
